src = patent US20240084003A1

Assignment: determine reported Proportion of chimeric antibody positive cells to B cells (%) for the given binders.
# experimental_target: T1, CD22 on cynomolgus monkey peripheral blood B cells (cynomolgus monkey (Macaca fascicularis))
# T1 construct: whole, on cells; also called cynomolgus monkey B cells
# assay_remarks: FACS, cynomolgus PBMC, CD20+ B cells, antibody 1 nM
# Description: The monkey peripheral blood mononuclear cells were extracted from fresh cynomolgus monkey peripheral blood (purchased from Shanghai Medicilon Inc.) according to the instructions of Ficoll-Paque Plus (purchased from GE Healthcare, catalog number: 171440-02). After the cell suspension was centrifuged, the cells were resuspended in PBS containing 1% BSA, and then the cells were counted. […]
Answer format: value, then unit.

F1.250.16 (antibody, human IgG1, kappa, V domains shown, human-murine chimeric IgG1 kappa; VL name legible) VH: QVQLQQSGAEQVKPGASVKMSCKASGYTFTTYPIEWMKQNHGESLDWIGNIHPYNDDTEYNEKFKGKATLTVEKSSNTVFLELSRLTSDDSAVYYCVRGDYYNSRYWYFDVWGTGTTVTVSS VL: DIVMTQSQKFMSTTVGDRVSITCKAGQNVRTAVAWYQQKPGQSPKLLIYSASTRYIGVPERFTGSGSGTDFTLTITNMQSEDLADYFCQQYSSFPLTFGTGTKLELKR
92%
HA22-hIgG1 (antibody, V domains shown) VH: EVQLVESGGGLVKPGGSLKLSCAASGFAFSIYDMSWVRQTPEKCLEWVAYISSGGGTTYYPDTVKGRFTISRDNAKNTLYLQMSSLKSEDTAMYYCARHSGYGTHWGVLFAYWGQGTLVTVSA VL: DIQMTQTTSSLSASLGDRVTISCRASQDISNYLNWYQQKPDGTVKLLIYYTSILHSGVPSRFSGSGSGTDYSLTISNLEQEDFATYFCQQGNTLPWTFGCGTKLEIKR
33%
F1.267.9 (antibody, human IgG1, kappa, V domains shown, human-murine chimeric IgG1 kappa; VL name legible) VH: EVQLQQSGPVLVKPGASVKMSCKASGYTFTDFYMNWAKQSHGKSLEWVGVINPYNGGINYNQKFKGKATLTVDKSSSTAYMEFNSLTSEDSAVYYCARRMEYHAMDYWGQGTSVTVSS VL: DIVLTQSPASLAVSLGQRATISCRASESVDNYGFDFIHWYQQKPGQPPKLLIYRASNLESGIPARFSGSGSRPDFTLTINPVETDDVATYYCQQSIKDPWTFGGGTKLEIKR
39%

Need Proportion of chimeric antibody positive cells to B cells (%) for each of these binders.
1. F1.257.3 (antibody, human IgG1, kappa, V domains shown, human-murine chimeric IgG1 kappa; VL name legible) VH: QVQLQQSGPELARPGASVKLSCKASGYTFTSYGISWVKQRTGQDLEWIGEIYPKLGTTYYNEKFKDKATLTTDRSSSTAYMALRSLTSEDSAVYFCACPHYYATRGGDYWGQGTTLTVSS VL: EIVLTQSPATLSVTPGDSVTFSCRASQSISNHLHWYQQKSHESPRLLIRYASQSISGIPSRFSGSGSGTDFTLSLSSVETEDFGVYFCQQSHSWPYTFGGGTKLEIAR
2. F2.70.2 (antibody, human IgG1, lambda, V domains shown, human-murine chimeric IgG1 lambda) VH: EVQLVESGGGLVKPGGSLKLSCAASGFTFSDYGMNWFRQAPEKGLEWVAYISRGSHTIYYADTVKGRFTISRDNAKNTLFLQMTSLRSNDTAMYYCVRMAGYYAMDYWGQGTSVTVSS VL: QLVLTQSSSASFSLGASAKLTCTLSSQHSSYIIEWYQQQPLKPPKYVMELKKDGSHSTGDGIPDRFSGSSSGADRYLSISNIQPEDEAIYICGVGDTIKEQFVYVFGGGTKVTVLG

Result string:
["17%", "20%"]
